Test system: Neisseria meningitidis
test_description: Antimicrobial activity against Neisseria meningitidis M7 by agar dilution method
Type: functional
# MIC annotations
State just the number; it will be interpreted in µg/mL.

{"molecule": "O=C(O)c1cn(C2CC2)c2cc(N3CCNCC3)c(F)cc2c1=O", "reported_value": 0.02}
{"molecule": "CC[C@H]1OC(=O)[C@H](C)[C@@H](O[C@H]2C[C@@](C)(OC)[C@@H](O)[C@H](C)O2)[C@H](C)[C@@H](O[C@@H]2O[C@H](C)C[C@H](N(C)C)[C@H]2O)[C@](C)(O)C[C@@H](C)CN(C)[C@H](C)[C@@H](O)[C@]1(C)O", "reported_value": 2}
{"molecule": "CC[n+]1c(-c2ccccc2)c2cc(N)ccc2c2ccc(N)cc21.[Br-] [HOMIDIUM BROMIDE]", "reported_value": 12}

What value of MIC has been reported for the following molecule? `CCCCCCCCCCCCCCCC(=O)O`
400

###

System: Neisseria meningitidis
test_description: Antimicrobial activity against Neisseria meningitidis M7mtrE::Spc by agar dilution method
Format: functional
readout_kind: MIC

Past entries and their recorded results:
{"compound": "CCCCCCCCCCCCCCCC(=O)O", "MIC": "50 µg/mL"}
{"compound": "O=C(O)c1cn(C2CC2)c2cc(N3CCNCC3)c(F)cc2c1=O", "MIC": "0.02 µg/mL"}
{"compound": "CC[C@H]1OC(=O)[C@H](C)[C@@H](O[C@H]2C[C@@](C)(OC)[C@@H](O)[C@H](C)O2)[C@H](C)[C@@H](O[C@@H]2O[C@H](C)C[C@H](N(C)C)[C@H]2O)[C@](C)(O)C[C@@H](C)CN(C)[C@H](C)[C@@H](O)[C@]1(C)O", "MIC": "0.125 µg/mL"}

Moving on to another compound below.
Which measured MIC belongs to CC[n+]1c(-c2ccccc2)c2cc(N)ccc2c2ccc(N)cc21.[Br-] [HOMIDIUM BROMIDE] , tested on Neisseria meningitidis?
0.75 µg/mL
